- target.of.assay: CD3ε homodimer protein (human, UniProt P07766 23-126, limits assumed)
- Sequence (P07766 23-126 limits assumed): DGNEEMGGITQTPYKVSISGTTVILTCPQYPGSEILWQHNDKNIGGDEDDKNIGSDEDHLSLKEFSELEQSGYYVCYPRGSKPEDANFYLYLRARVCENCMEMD
- experiment.description: SPR, immobilized CD3ε homodimer;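 further: biacore T200 surface plasmon resonance at 25 °C, antibody variants flowed as analytes over amine-coupled CD3ε homodimer on a CM4 chip, variant binding amount divided by that of GLS3000 antibody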
Exercise: for every item that follows, state its recorded ratio of amounts bound (vs GLS3000).
Reply: number alone, nothing else.

Lab note: GLS3000 F55M (antibody, name in Kabat numbering, V domains shown, one-arm format as m2) VH: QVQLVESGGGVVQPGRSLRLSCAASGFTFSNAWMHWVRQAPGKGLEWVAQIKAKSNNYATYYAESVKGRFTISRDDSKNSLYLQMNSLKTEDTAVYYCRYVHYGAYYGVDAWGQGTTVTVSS VL: DIVMTQSPLSLPVTPGEPASISCRSSQSLVHSNRNTYLHWYQQKPGQAPRLLIYKVSNRMSGVPDRFSGSGSGTDFTLKISRVEAEDVGVYYCGQGTQVPYTFGQGTKLEIK gave ratio of amounts bound (vs GLS3000) of 0.8

Lab book: ratio of amounts bound (vs GLS3000) of GLS3000 P95D (antibody, name in Kabat numbering, V domains shown, one-arm format as m2) VH: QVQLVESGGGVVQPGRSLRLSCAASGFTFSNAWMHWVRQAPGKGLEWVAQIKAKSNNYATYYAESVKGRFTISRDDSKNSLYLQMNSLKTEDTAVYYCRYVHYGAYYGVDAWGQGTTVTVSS VL: DIVMTQSPLSLPVTPGEPASISCRSSQSLVHSNRNTYLHWYQQKPGQAPRLLIYKVSNRFSGVPDRFSGSGSGTDFTLKISRVEAEDVGVYYCGQGTQVDYTFGQGTKLEIK noted as 0.24

The binder listed as GLS3000 S52Q (antibody, name in Kabat numbering, V domains shown, one-arm format as m2) VH: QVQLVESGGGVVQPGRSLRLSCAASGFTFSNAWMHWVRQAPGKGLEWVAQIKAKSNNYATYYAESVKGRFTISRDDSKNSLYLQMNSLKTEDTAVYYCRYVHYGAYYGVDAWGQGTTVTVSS VL: DIVMTQSPLSLPVTPGEPASISCRSSQSLVHSNRNTYLHWYQQKPGQAPRLLIYKVQNRFSGVPDRFSGSGSGTDFTLKISRVEAEDVGVYYCGQGTQVPYTFGQGTKLEIK has a reported ratio of amounts bound (vs GLS3000) of 1.05

Item: GLS3000 H34V (antibody, name in Kabat numbering, V domains shown, one-arm format as m2) VH: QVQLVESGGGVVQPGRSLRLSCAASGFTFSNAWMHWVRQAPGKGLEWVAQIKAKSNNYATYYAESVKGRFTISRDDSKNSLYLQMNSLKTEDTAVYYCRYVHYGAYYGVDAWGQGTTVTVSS VL: DIVMTQSPLSLPVTPGEPASISCRSSQSLVHSNRNTYLVWYQQKPGQAPRLLIYKVSNRFSGVPDRFSGSGSGTDFTLKISRVEAEDVGVYYCGQGTQVPYTFGQGTKLEIK | ratio of amounts bound (vs GLS3000): 0.85

GET /value?item= GLS3000 F55N (antibody, name in Kabat numbering, V domains shown, one-arm format as m2) VH: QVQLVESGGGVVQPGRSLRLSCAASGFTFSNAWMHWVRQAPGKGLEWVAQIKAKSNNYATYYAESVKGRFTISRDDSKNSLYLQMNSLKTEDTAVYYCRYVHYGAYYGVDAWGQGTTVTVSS VL: DIVMTQSPLSLPVTPGEPASISCRSSQSLVHSNRNTYLHWYQQKPGQAPRLLIYKVSNRNSGVPDRFSGSGSGTDFTLKISRVEAEDVGVYYCGQGTQVPYTFGQGTKLEIK &field=ratio of amounts bound (vs GLS3000) returns 0.98
